species: Rattus norvegicus; assay: Open TG-GATES - Regimen: Daily Repeat; type: toxicity, organism-based, Sprague-Dawley; parameters: regimen Daily Repeat, gender Male, age 6 weeks; settings: in vivo, po, 0 mg/kg, […], tissue Blood, route gavage, dose level Control, time 28 day
Define the label as satisfied when MCH is strictly less than 20 pg and as not satisfied in all remaining cases.

Reference set, count: 6
compound | classAssignment
COC(=O)C1=C(C)NC(C)=C(C(=O)OC)C1c1ccccc1[N+](=O)[O-] | not satisfied
Brc1ccccc1 | satisfied
Nc1c2c(nc3ccccc13)CCCC2 | not satisfied
CN(C)CCC(c1ccc(Cl)cc1)c1ccccn1 (stereo not drawn) | satisfied
Cc1nnc2n1-c1ccc(Cl)cc1C(c1ccccc1Cl)=NC2 | satisfied
CN/C(=N/CCSCc1nc[nH]c1C)NC#N | satisfied

Quick check: does CCOc1ccc(NC(C)=O)cc1 have MCH under 20 pg? satisfied

====

Here, each record is paired with measured KIDNEY_R data.
species: Rattus norvegicus; assay: Open TG-GATES - Regimen: Daily Repeat; type: toxicity, organism-based, Sprague-Dawley; set-up: regimen Daily Repeat, gender Male, age 6 weeks; conditions: in vivo, po, 0 mg/kg, […], tissue Kidney, route gavage, dose level Control, time 28 day
Unit g implied. Number only.

substanceSmiles | KIDNEY_R (g)
CC(C)NNC(=O)c1ccncc1 | 1.4
CNC(=C[N+](=O)[O-])NCCSCc1ccc(CN(C)C)o1 | 1.4
Nc1c2c(nc3ccccc13)CCCC2 | 1.4
Cc1nnc2n1-c1ccc(Cl)cc1C(c1ccccc1Cl)=NC2 | 1.4
CN/C(=N/CCSCc1nc[nH]c1C)NC#N | 1.5

Now turn to the next molecule.
CCOc1ccc(NC(C)=O)cc1 has a reported KIDNEY_R of 1.4

====

Here, each record is paired with measured PT data.
species: Rattus norvegicus; experiment: Open TG-GATES - Regimen: Daily Repeat; format: toxicity, organism-based, Sprague-Dawley; set-up: regimen Daily Repeat, gender Male, age 6 weeks; conditions: in vivo, po, 1000 mg/kg, 72 h, tissue Blood, route gavage, dose level High, time 3 day
Unit s implied. Number only.

Solved entries (count: 2):
molecule | PT (s)
COC(=O)C1=C(C)NC(C)=C(C(=O)OC)C1c1ccccc1[N+](=O)[O-] [NIFEDIPINE] | 14.1
O=C(OC[C@H]1O[C@@H](OC(=O)c2cc(O)c(O)c(OC(=O)c3cc(O)c(O)c(O)c3)c2)[C@H](OC(=O)c2cc(O)c(O)c(OC(=O)c3cc(O)c(O)c(O)c3)c2)[C@@H](OC(=O)c2cc(O)c(O)c(OC(=O)c3cc(O)c(O)c(O)c3)c2)[C@@H]1OC(=O)c1cc(O)c(O)c(OC(=O)c2cc(O)c(O)c(O)c2)c1)c1cc(O)c(O)c(OC(=O)c2cc(O)c(O)c(O)c2)c1 [TANNIC ACID] | 11.6

CN/C(=N/CCSCc1nc[nH]c1C)NC#N [CIMETIDINE] has a reported PT of 12.7

Cc1nnc2n1-c1ccc(Cl)cc1C(c1ccccc1Cl)=NC2 [TRIAZOLAM] has a reported PT of 13

CCOc1ccc(NC(C)=O)cc1 [PHENACETIN] has a reported PT of 13.3

CNC(=C[N+](=O)[O-])NCCSCc1ccc(CN(C)C)o1 [RANITIDINE] has a reported PT of 12

====

Here, each record is paired with measured ALT data.
organism: Rattus norvegicus; experiment: Open TG-GATES - Regimen: Single; assay type: toxicity, organism-based, Sprague-Dawley; set-up: regimen Single, gender Male, age 6 weeks; conditions: in vivo, po, 0 mg/kg, 6 h, tissue Plasma, route gavage, dose level Control
Unit IU/L implied. Number only.

compound | ALT [IU/L]
Brc1ccccc1 [BROMOBENZENE] | 40.8

CN(C)CCC(c1ccc(Cl)cc1)c1ccccn1 (centres undefined) [CHLORPHENIRAMINE] has a reported ALT of 44.8

CNC(=C[N+](=O)[O-])NCCSCc1ccc(CN(C)C)o1 [RANITIDINE] has a reported ALT of 35.2

CC(C)NNC(=O)c1ccncc1 [IPRONIAZID] has a reported ALT of 38.6

====

species: Rattus norvegicus; assay: Open TG-GATES - Regimen: Single; assay type: toxicity, organism-based, Sprague-Dawley; parameters: regimen Single, gender Male, age 6 weeks; conditions: in vivo, po, 0 mg/kg, 9 h, tissue Blood, route gavage, dose level Control
Here, each record is paired with measured Lym data.

Solved entries (count: 4):
compound | endpointResult
CCCc1cc(=O)[nH]c(=S)[nH]1 | 77.8%
Cc1nnc2n1-c1ccc(Cl)cc1C(c1ccccc1Cl)=NC2 | 77.4%
CN/C(=N/CCSCc1nc[nH]c1C)NC#N | 75.6%
CS(=O)(=O)O.Cc1ccc(NC(=O)c2ccc(CN3CCN(C)CC3)cc2)cc1Nc1nccc(-c2cccnc2)n1 [IMATINIB MESYLATE] | 76.4%

CN(C)CCC(c1ccc(Cl)cc1)c1ccccn1 (centres undefined) has a reported Lym of 75.6%

O=C(OC[C@H]1O[C@@H](OC(=O)c2cc(O)c(O)c(OC(=O)c3cc(O)c(O)c(O)c3)c2)[C@H](OC(=O)c2cc(O)c(O)c(OC(=O)c3cc(O)c(O)c(O)c3)c2)[C@@H](OC(=O)c2cc(O)c(O)c(OC(=O)c3cc(O)c(O)c(O)c3)c2)[C@@H]1OC(=O)c1cc(O)c(O)c(OC(=O)c2cc(O)c(O)c(O)c2)c1)c1cc(O)c(O)c(OC(=O)c2cc(O)c(O)c(O)c2)c1 has a reported Lym of 76.8%

Nc1c2c(nc3ccccc13)CCCC2 has a reported Lym of 81.6%

Brc1ccccc1 has a reported Lym of 74.8%

====

species on record: Rattus norvegicus; experiment: Open TG-GATES - Regimen: Single; format: toxicity, organism-based, Sprague-Dawley; set-up: regimen Single, gender Male, age 6 weeks; conditions: in vivo, po, 0 mg/kg, 3 h, tissue Plasma, route gavage, dose level Control
The threshold is inclusive: TC of exactly 80 mg/dL counts as 1.0; values below receive 0.0.

compound | classAssignment
CCCc1cc(=O)[nH]c(=S)[nH]1 [PROPYLTHIOURACIL] | 1.0

Please tell me: is the compound CN1C(=O)CCS(=O)(=O)C1c1ccc(Cl)cc1 (stereo unspecified) [CHLORMEZANONE] at or over 80 mg/dL in terms of TC? 0.0

Please tell me: is the compound Nc1c2c(nc3ccccc13)CCCC2 [TACRINE] at or over 80 mg/dL in terms of TC? 0.0

Please tell me: is the compound CS(=O)(=O)O.Cc1ccc(NC(=O)c2ccc(CN3CCN(C)CC3)cc2)cc1Nc1nccc(-c2cccnc2)n1 [IMATINIB MESYLATE] at or over 80 mg/dL in terms of TC? 1.0

Please tell me: is the compound Cc1nnc2n1-c1ccc(Cl)cc1C(c1ccccc1Cl)=NC2 [TRIAZOLAM] at or over 80 mg/dL in terms of TC? 1.0

Please tell me: is the compound CC(C)NNC(=O)c1ccncc1 [IPRONIAZID] at or over 80 mg/dL in terms of TC? 0.0

====

organism: Rattus norvegicus; experiment: Open TG-GATES - Regimen: Daily Repeat; assay type: toxicity, organism-based, Sprague-Dawley; parameters: regimen Daily Repeat, gender Male, age 6 weeks; conditions: in vivo, po, 100 mg/kg, […], tissue Plasma, route gavage, dose level Low, time 28 day
parameterMeasured: TC (mg/dL)
Unit mg/dL implied. Number only.

substanceSmiles | TC / mg/dL
CNC(=C[N+](=O)[O-])NCCSCc1ccc(CN(C)C)o1 | 65.2
COC(=O)C1=C(C)NC(C)=C(C(=O)OC)C1c1ccccc1[N+](=O)[O-] | 64.6
CCOc1ccc(NC(C)=O)cc1 | 63.8
Cc1nnc2n1-c1ccc(Cl)cc1C(c1ccccc1Cl)=NC2 | 68.4

O=C(OC[C@H]1O[C@@H](OC(=O)c2cc(O)c(O)c(OC(=O)c3cc(O)c(O)c(O)c3)c2)[C@H](OC(=O)c2cc(O)c(O)c(OC(=O)c3cc(O)c(O)c(O)c3)c2)[C@@H](OC(=O)c2cc(O)c(O)c(OC(=O)c3cc(O)c(O)c(O)c3)c2)[C@@H]1OC(=O)c1cc(O)c(O)c(OC(=O)c2cc(O)c(O)c(O)c2)c1)c1cc(O)c(O)c(OC(=O)c2cc(O)c(O)c(O)c2)c1 has a reported TC of 70.6

CN/C(=N/CCSCc1nc[nH]c1C)NC#N has a reported TC of 70.2

====

species on record: Rattus norvegicus; assay: Open TG-GATES - Regimen: Daily Repeat; assay type: toxicity, organism-based, Sprague-Dawley; set-up: regimen Daily Repeat, gender Male, age 6 weeks; details: in vivo, po, 1000 mg/kg, […], tissue Blood, route gavage, dose level High, time 7 day
Here, each record is paired with measured APTT data.
Unit s implied. Number only.

Solved entries (count: 2):
substanceSmiles | endpointResult
CNC(=C[N+](=O)[O-])NCCSCc1ccc(CN(C)C)o1 | 19.6
CN/C(=N/CCSCc1nc[nH]c1C)NC#N | 16.9

Now turn to the next molecule.
COC(=O)C1=C(C)NC(C)=C(C(=O)OC)C1c1ccccc1[N+](=O)[O-] has a reported APTT of 16.8
